- System: phosphorylation of the myosin light chain (T18/S19) of smooth muscle cells A7r5
- protocol notes: Detection of myosin light chain phosphorylation by In-Cell Western Blotting
- Type: cell-based
- measurement setup: rat smooth muscle cells A7r5, 1 h incubation in serum-free medium; read-out: A7r5 (IC50 class, inhibition of myosin light chain phosphorylation)
pIC50: −log10 of the molar value.
Reported pIC50 values for a set of compounds

Below, 5 compounds whose answers are already recorded.
CN(C)CCC(NC(=O)c1ccc2cnccc2c1)c1ccccc1 (stereo not drawn) | < 6.00
NCCC(NC(=O)c1ccc2cnccc2c1)c1cccc(Cl)c1 (stereo not drawn) | > 6.60
COc1cccc([C@@H](CN(C)C)NC(=O)c2ccc3cnccc3c2)c1 | 6.00 to 6.60
CN1CC[C@@H]([C@H](NC(=O)c2ccc3cnccc3c2)c2ccccc2)C1 | 6.00 to 6.60
NC[C@@H](NC(=O)c1ccc2cnccc2c1)c1cccc(Br)c1 | > 6.60

# pIC50 of CCOC(=O)c1cc(-c2cccc(C(CCN)NC(=O)c3ccc4cnccc4c3)c2)cs1 (stereo not drawn) = 6.00 to 6.60

# pIC50 of Cc1ccc(C(=O)OCc2ccc([C@@H](CN)NC(=O)c3ccc4cnccc4c3)cc2)c(C)c1 = < 6.00

# pIC50 of O=C(N[C@H](c1ccccc1)[C@@H]1CCNC1)c1ccc2cnccc2c1 [Compound 11a] = 6.00 to 6.60

# pIC50 of O=C(NC(c1ccccc1)C1CNC1)c1ccc2cnccc2c1 (stereo not drawn) = 6.00 to 6.60

###

Heads up, these compounds all have pIC50 values measured for ROCK2 (Homo sapiens, UniProt O75116).
pIC50: −log10 of the molar value.

Below, 2 compounds whose answers are already recorded.
O=C(N[C@H](c1ccccc1)[C@H]1CCNC1)c1ccc2cnccc2c1 [Compound 14a] | 6.30 to 7.00
CN1CC[C@@H]([C@@H](NC(=O)c2ccc3cnccc3c2)c2ccccc2)C1 [Compound 12] | > 7.00

# pIC50 of O=C(N[C@@H](c1ccccc1)[C@@H]1CCNC1)c1ccc2cnccc2c1 [Compound 11b] = > 7.00

###

pIC50: −log10 of the molar value.
Heads up, these molecules all have pIC50 values measured for ROCK2 (Homo sapiens).

Below, 5 molecules whose answers are already recorded.
Cc1ccc(C(=O)OCc2ccc([C@@H](CN)NC(=O)c3ccc4cnccc4c3)cc2)c(C)c1 | 6.30 to 7.00
CN1CC[C@@H]([C@H](NC(=O)c2ccc3cnccc3c2)c2ccccc2)C1 | > 7.00
O=C(N[C@@H](c1ccccc1)[C@H]1CCNC1)c1ccc2cnccc2c1 [Compound 14b] | > 7.00
O=C(NC(c1ccccc1)C1CNC1)c1ccc2cnccc2c1 (stereo not drawn) | > 7.00
O=C(N[C@H](c1ccccc1)[C@@H]1CCNC1)c1ccc2cnccc2c1 [Compound 11a] | > 7.00

Item CN1CC(C(NC(=O)c2ccc3cnccc3c2)c2ccccc2)C1 (stereo not drawn) ; assay system ROCK2 (Homo sapiens); pIC50 reported as > 7.00

Item NC[C@@H](NC(=O)c1ccc2cnccc2c1)c1cccc(Br)c1 ; assay system ROCK2 (Homo sapiens); pIC50 reported as > 7.00

Item NC[C@@H](NC(=O)c1ccc2cnccc2c1)c1ccc(CO)cc1 ; assay system ROCK2 (Homo sapiens); pIC50 reported as 6.30 to 7.00

Item COc1cccc([C@@H](CN(C)C)NC(=O)c2ccc3cnccc3c2)c1 ; assay system ROCK2 (Homo sapiens); pIC50 reported as > 7.00
